B1: 5KPH (parent)
chain: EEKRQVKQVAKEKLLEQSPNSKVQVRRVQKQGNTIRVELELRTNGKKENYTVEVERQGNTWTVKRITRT

- Variants of: B1
- procedure-text: folding stability dG (cDNA display proteolysis); higher = more stable
- condition: PBS, room temperature
attribute-measured: folding stability dG (kJ/mol)
The answer is to be given in kJ/mol; state only the numeric part.

Solved cases below.
sequence-record	value-reported
EEKRQVKRVAKEKLLEQSPNSKVQVRRVQKQGNTIRVELELRTNGKKENYTVEVERQGNTWTVKRITRT [Q8R]	16.4
EEKRQVKQVAKEKLLEQSPNSKVQVRRVQKQGNTIRVELELRTNGKKENYTVEVERQGNTWTVKRITRL [T69L]	16.6
EEKRQVKQVAKEKLLEQSPNSKVQVRRVQKQLNTIRVELELRTNGKKENYTVEVERQGNTWTVKRITRT [G32L]	12.9
EEKRQVKQVAKEKLLEQSPNSKVQVRRVQKQGNTIRVELELRTNGKKENYSVEVERQGNTWTVKRITRT [T51S]	15.7
ENKRQVKQVAKEKLLEQSPNSKVQVRRVQKQGNTIRVELELRTNGKKENYTVEVERQGNTWTVKRITRT [E2N]	13.7
EEKRLVKQVAKEKLLEQSPNSKVQVRRVQKQGNTIRVELELRTNGKKENYTVEVERQGNTWTVKRITRT [Q5L]	16.3
EEKRQVKQVAKEKLLEQSPNSKVQVRRVQKQGVTIRVELELRTNGKKENYTVEVERQGNTWTVKRITRT [N33V]	14.2
EEKRQVKQVAKEKLLEQSPNSKVQVRRMQKQGNTIRVELELRTNGKKENYTVEVERQGNTWTVKRITRT [V28M]	17.2

Short answer for EEKRQVKQVAKEKLLEQSPNNKVQVRRVQKQGNTIRVELELRTNGKKENYTVEVERQGNTWTVKRITRT [S21N] : folding stability dG was 9.94

// field: folding stability dG; key: EEKRQVKQVAKEKLLEQSPNSKVQVRRVQKQGNTIRVELELRTNFKKENYTVEVERQGNTWTVKRITRT [G45F] ; value = 16.6

According to the records, this variant EEKRQVKQVAKEKLLEQSPNSKVQVRRVQKQGNTIRVELEARTNGKKENYTVEVERQGNTWTVKRITRT [L41A] displays folding stability dG of 15.2

Note to self: folding stability dG recorded for EEKRQVKQVAKEKLLEQSPNSKVQVRRVQKQGNTIRVELELRTNGKKENYTVEVERQGNVWTVKRITRT [T60V] was 16.8

// sample EEKRQVKQVAKEKLLEQSPNSKVPVRRVQKQGNTIRVELELRTNGKKENYTVEVERQGNTWTVKRITRT [Q24P] , its folding stability dG was 5.23

Data point: EEKRQVKQVAKEKLLEQSPNSKVQVRRVQKQGNTIRVELELRTNGKKENYTVEVERQGNTWTVMRITRT [K64M] ; folding stability dG = 17.9

Documented folding stability dG of EEKRQVKQVAKEKLLEQSPNSKVQVRRVQKQGNTIRVELELRTNGKKENYTWEVERQGNTWTVKRITRT [V52W] : 6.61

# folding stability dG (variant: EEKRQVKQVAKEKLLEQSPNSKVQVRRVQKQGNCIRVELELRTNGKKENYTVEVERQGNTWTVKRITRT [T34C] ) is 14.6

The recorded folding stability dG for EEKRQVKQCAKEKLLEQSPNSKVQVRRVQKQGNTIRVELELRTNGKKENYTVEVERQGNTWTVKRITRT [V9C] is 13.7

Quick note, folding stability dG for EEKRQVKQVAKEKLLEQSPNSKVQVRRVQKQGNTIRVEVELRTNGKKENYTVEVERQGNTWTVKRITRT [L39V] landed at 16

Form: variant = EEKRQVKQVAKEKLLEQSPNSKVQVRRVQKQGNTIRNELELRTNGKKENYTVEVERQGNTWTVKRITRT [V37N] ; folding stability dG = -0.854

Record summary for EEKRQVKQVAKEKLLEQSPNSKVQVRRVQKQGNTIRVELELRTNGKKENHTVEVERQGNTWTVKRITRT [Y50H] : reported folding stability dG = 8.79

Item: EEKRKVKQVAKEKLLEQSPNSKVQVRRVQKQGNTIRVELELRTNGKKENYTVEVERQGNTWTVKRITRT [Q5K] | folding stability dG: 16.2

So, EEERQVKQVAKEKLLEQSPNSKVQVRRVQKQGNTIRVELELRTNGKKENYTVEVERQGNTWTVKRITRT [K3E] ? Its folding stability dG was 20.3

// data source = the MegaScale stability set (Tsuboyama et al. 2023)
